B1: tRNA (parent)
chain: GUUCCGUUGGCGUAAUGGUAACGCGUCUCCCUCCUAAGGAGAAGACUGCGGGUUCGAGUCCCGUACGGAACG

- Variants of: B1
- experiment-description: yeast fitness relative to wild type (ratio to wild type); higher = fitter; tRNA-Arg(CCU), competitive growth, 37 C, YPD
Variants at the floor of the assay were thinned out.
Would you mind telling me the reported yeast fitness of each entry?
Give bare numbers.

A selection of reference data follows.
{"mutation-notation": "A15G G48A A65C", "val": 0.686}
{"mutation-notation": "U3C U16C C30G C31G A37U", "val": 0.718}

Ask: Which yeast fitness value is on record for C5U A42C G67U ?
Result: 0.69
